Molecular target: T1, hCD47-ECD/Fc protein (Sinobiological) (human, UniProt Q08722 19-139, biotinylated in the Octet assay, sites not stated)
T1 construct: extracellular domain; Bought protein; also called human CD47-Fc antigen; recombinant hCD47-ECD/Fc; not shown: Fc part of the bought fusion protein
T1 sequence (Q08722 19-139 limits assumed): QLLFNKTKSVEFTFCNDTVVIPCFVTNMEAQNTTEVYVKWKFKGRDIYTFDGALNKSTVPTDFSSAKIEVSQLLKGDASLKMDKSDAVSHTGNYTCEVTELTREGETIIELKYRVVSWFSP
Assay: BLI (Octet RED96), biotin-hCD47-ECD/Fc on SA sensors, 1:1 model;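 note: test antibodies as analytes, 300 s association then 300 s dissociation in running buffer, with benchmark reference antibodies run as controls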
quantity: koff
Please answer using a numeric value trailed by its unit.

{"columns": ["binder", "koff"],
 "data": [
  ["TY25038 (antibody, V domains shown) VH: QVQLVQSGAEVKKPGSSVKVSCKASGFTFSRYAIHWVRQAPGQGLEWLGGIIPVFGTANYAQKFQGRVTITADKSTSTAYMELSSLRSEDTAVYYCARQGILGGFAYWGQGTLVTVSS VL: DIQLTQSPSSLSASVGDRVTITCRASESVDFHGKSFLAWYQQKPGKAPKLLIYAASSLQSGVPSRFSGSGSGTDFTLTISSLQPEDFATYYCQQYLELPFTFGQGTKVEIKR", "0.00111 s⁻¹"]
]}

Below: the item to evaluate.
Sample TY25029 (antibody, V domains shown) VH: EVQLVESGGGLVQPGGSLRLSCAASGYTFSNYWIHWVRQAPGKGLEWIGIIYPSSGSTKYAQKFQGRVTISRDNSKNTLYLQLNSLRAEDTAVYYCARDRAPGSSGYYDGFDYWGQGTLVTVSS VL: DIQLTQSPSSLSASVGDRVTITCRASQSVDFHGISFLHWYQQKPGKAPKLLIYDASSLESGVPSRFSGSGSGTDFTLTISSLQPEDFATYYCHQRSTTPLTFGQGTKVEIKR — what was its koff?
0.000631 s⁻¹
